Target: human RORγ-LBD (Homo sapiens)
Construct: made in house; host or cells: E. coli (BL-21)
Test: ROR gamma coactivator peptide recruitment Alphascreen assay (RORγ-LBD binding to GRIP1 coactivator peptide)
Format: biochemical
Conditions: 5 nM human RORγ-LBD, 30 nM 7-β-hydroxycholesterol, 50 nM biotinylated GRIP1 coactivator peptide, overnight incubation at room temperature; read-out: result (pIC50, RORγ coactivator peptide recruitment Alphascreen assay) (converted)
Threshold check on IC50: strictly below 4 nM is Fulfilled; on or above 4 nM is Not fulfilled.

{"COMPOUND": "CC1(CN(CC(=O)c2c(Cl)cc(F)cc2Cl)C(=O)c2cnn([C@H]3CC[C@](C)(C(=O)O)CC3)c2C(F)(F)F)CCC1 [Example 691]", "ASSIGNED CATEGORY": "Fulfilled"}
{"COMPOUND": "C[C@@H]1C[C@@H](n2ncc(C(=O)N(CC(=O)c3c(Cl)cncc3Cl)CC3(F)CC3)c2C(F)(F)F)CC[C@@H]1C(=O)O (stereo in doubt) [Example 736]", "ASSIGNED CATEGORY": "Not fulfilled"}
{"COMPOUND": "Cc1cc(Cl)c(C(=O)CN(CCC(C)C)C(=O)c2cnn([C@H]3CC[C@](C)(C(=O)O)CC3)c2C(F)(F)F)c(Cl)c1 [Example 704]", "ASSIGNED CATEGORY": "Fulfilled"}
{"COMPOUND": "CC1(CN(CCc2c(Cl)cncc2Cl)C(=O)c2cnn([C@H]3CC[C@@H](C(=O)O)CC3)c2C(F)(F)F)CCC1 [Example 560]", "ASSIGNED CATEGORY": "Not fulfilled"}
{"COMPOUND": "Cc1cc(Cl)c(C(=O)CN(CC2(C)CCCCC2)C(=O)c2cnn([C@H]3CC[C@](C)(C(=O)O)CC3)c2C(F)(F)F)c(Cl)c1 [Example 571]", "ASSIGNED CATEGORY": "Fulfilled"}

----------
Biological target: ligand binding domain of human ROR gamma (Homo sapiens, UniProt P51449)
Construct: NM_001001523; expressed in transfected cells; host or cells: HEK293T
Test: ROR gamma reporter gene assay (GAL4-RORγ LBD luciferase, Dual-Glo)
Assay type: cell-based
Settings: HEK293T cells transfected with pM-ROR gamma, 8 concentrations 3.5 nM to 10.5 μM, 24 h incubation; read-out: result (pIC50, inhibition of RORγ transcriptional activity) (converted)
MEASUREMENT NAME: IC50

{"COMPOUND": "Cc1ccc(N)c(C(=O)CN(Cc2cc(F)cc(F)c2)C(=O)c2cnn([C@H]3CC[C@H](C(=O)O)CC3)c2C(F)(F)F)c1", "MEASUREMENT": "2.24e+06 pM"}
{"COMPOUND": "COc1cccc(Cl)c1[C@@H](O)CN(C(=O)c1cnn([C@H]2CC[C@](C)(C(=O)O)CC2)c1C(F)(F)F)[C@H]1C[C@@H]2[C@H](C1)C2(C)C", "MEASUREMENT": "759000 pM"}
{"COMPOUND": "O=C(CN(Cc1cncnc1)C(=O)c1cnn([C@H]2CC[C@H](C(=O)O)CC2)c1C(F)(F)F)c1c(Cl)cccc1Cl", "MEASUREMENT": "148000 pM"}
{"COMPOUND": "Cc1cc(Cl)c(C(=O)CN(Cc2cc(F)cc(F)c2)C(=O)c2cnn([C@H]3CC[C@H](C(=O)O)CC3)c2C(F)(F)F)c(C#N)c1", "MEASUREMENT": "8.32e+06 pM"}
{"COMPOUND": "CC1(C)[C@@H]2C[C@H](N(CC(=O)c3c(Cl)cc(Cl)cc3Cl)C(=O)c3cnn(C45CCC(C(=O)O)(CC4)CC5)c3C(F)(F)F)C[C@@H]21", "MEASUREMENT": "5130 pM"}
{"COMPOUND": "CC(C)(C)CN(CC(=O)c1c(Cl)cccc1C(F)(F)F)C(=O)c1cnn(C23CCC(C(=O)O)(CC2)CC3)c1C(F)(F)F", "MEASUREMENT": "5890 pM"}
{"COMPOUND": "CC1(C)[C@@H]2C[C@H](N(CC(=O)c3c(Cl)cccc3Cl)C(=O)c3cnn([C@H]4CC[C@](C)(C(=O)O)CC4)c3Cl)C[C@@H]21", "MEASUREMENT": "13200 pM"}
{"COMPOUND": "O=C(O)C1CCC(n2ncc(C(=O)N(CCc3c(Cl)cncc3Cl)Cc3ccc(F)cc3)c2C(F)(F)F)CC1 (centres unmarked)", "MEASUREMENT": "166000 pM"}
{"COMPOUND": "CC1(C)[C@@H]2C[C@H](N(CC(=O)c3c(Cl)cc(Cl)cc3Cl)C(=O)c3cnn([C@H]4CC[C@](C)(C(=O)O)CC4)c3C(F)(F)F)C[C@@H]21", "MEASUREMENT": "4900 pM"}
{"COMPOUND": "C[C@]1(C(=O)O)CC[C@H](n2ncc(C(=O)N(CC(=O)c3c(Cl)cncc3Cl)Cc3cc(F)cc(F)c3)c2C(F)(F)F)CC1", "MEASUREMENT": "10000 pM"}
{"COMPOUND": "CC12CCC(CN(CC(=O)c3c(Cl)cncc3Cl)C(=O)c3cnn([C@H]4CC[C@H](C(=O)O)CC4)c3C(F)(F)F)(CC1)O2", "MEASUREMENT": "24500 pM"}

----------
Target: ligand binding domain of human ROR gamma (Homo sapiens)
Construct: NM_001001523; expressed in transfected cells; host or cells: HEK293T
Assay: ROR gamma reporter gene assay (GAL4-RORγ LBD luciferase, Dual-Glo)
Format: cell-based
Conditions: HEK293T cells transfected with pM-ROR gamma, 8 concentrations 3.5 nM to 10.5 μM, 24 h incubation; read-out: result (pIC50, inhibition of RORγ transcriptional activity) (converted)
Simple rule here: IC50 less than 30000 pM is satisfied, otherwise not satisfied.

{"COMPOUND STRUCTURE": "COc1cccc(Cl)c1C(=O)CN(C(=O)c1cnn(C23CCC(C(=O)O)(CC2)CC3)c1C(F)(F)F)[C@H]1C[C@@H]2[C@H](C1)C2(C)C", "ASSIGNED CATEGORY": "satisfied"}
{"COMPOUND STRUCTURE": "O=C(CN(CC12CC3CC(CC(C3)C1)C2)C(=O)c1cnn([C@H]2CC[C@H](C(=O)O)CC2)c1C(F)(F)F)c1c(Cl)cncc1Cl", "ASSIGNED CATEGORY": "satisfied"}
{"COMPOUND STRUCTURE": "CC(C)(C)OCCN(CC(=O)c1c(Cl)cncc1Cl)C(=O)c1cnn([C@H]2CC[C@H](C(=O)O)CC2)c1C(F)(F)F", "ASSIGNED CATEGORY": "not satisfied"}
{"COMPOUND STRUCTURE": "Cc1cc(Cl)c(C(=O)CN(C(=O)c2cnn([C@H]3CC[C@](C)(C(=O)O)CC3)c2C(F)(F)F)[C@H]2C[C@@H]3[C@H](C2)C3(C)C)c(Cl)c1", "ASSIGNED CATEGORY": "satisfied"}
{"COMPOUND STRUCTURE": "O=C(CN(CC(F)(F)F)C(=O)c1cnn([C@H]2CC[C@H](C(=O)O)CC2)c1C(F)(F)F)c1c(Cl)cncc1Cl", "ASSIGNED CATEGORY": "not satisfied"}
{"COMPOUND STRUCTURE": "O=C(c1cnn([C@H]2CC[C@H](C(=O)O)CC2)c1C(F)(F)F)N(Cc1ccc(F)cc1)CC(F)(F)c1c(Cl)cccc1Cl", "ASSIGNED CATEGORY": "satisfied"}

----------
Target: human RORγ-LBD (Homo sapiens)
Construct: made in house; host or cells: E. coli (BL-21)
Sequence (P51449 262-518): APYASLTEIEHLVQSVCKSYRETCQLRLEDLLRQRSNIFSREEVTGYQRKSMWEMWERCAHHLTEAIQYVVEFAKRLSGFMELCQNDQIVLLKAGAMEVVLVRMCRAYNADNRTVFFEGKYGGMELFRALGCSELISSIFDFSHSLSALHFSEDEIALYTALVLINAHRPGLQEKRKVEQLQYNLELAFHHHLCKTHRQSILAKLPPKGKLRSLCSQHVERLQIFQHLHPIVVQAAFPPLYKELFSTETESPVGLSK
Assay: ROR gamma coactivator peptide recruitment Alphascreen assay (RORγ-LBD binding to GRIP1 coactivator peptide)
Format: biochemical
Settings: 5 nM human RORγ-LBD, 30 nM 7-β-hydroxycholesterol, 50 nM biotinylated GRIP1 coactivator peptide, overnight incubation at room temperature; read-out: result (pIC50, RORγ coactivator peptide recruitment Alphascreen assay) (converted)

{"COMPOUND": "CC1(C)CC(CN(CC(=O)c2c(F)cccc2Cl)C(=O)c2cnn([C@H]3CC[C@](C)(C(=O)O)CC3)c2C(F)(F)F)C1 [Example 595]", "UNIT STRING": "nM", "IC50": 5.62}
{"COMPOUND": "C[C@]1(C(=O)O)CC[C@H](n2ncc(C(=O)N(CC(=O)c3c(Cl)cccc3Cl)CC3CCC4(CC3)CC4)c2C(F)(F)F)CC1 [Example 569]", "UNIT STRING": "nM", "IC50": 6760}
{"COMPOUND": "C[C@@H]1C[C@@H](n2ncc(C(=O)N(CCc3c(Cl)c[nH]c(=O)c3Cl)CC(C)(C)C)c2C(F)(F)F)CC[C@@H]1C(=O)O [Example 886]", "UNIT STRING": "nM", "IC50": 468}
{"COMPOUND": "C[C@@H]1C[C@@H](n2ncc(C(=O)N(CC(=O)c3c(Cl)cncc3Cl)[C@@H]3CCC34CCC4)c2C(F)(F)F)CC[C@@H]1C(=O)O [Example 817]", "UNIT STRING": "nM", "IC50": 64.6}
{"COMPOUND": "C[C@@H]1C[C@@H](n2ncc(C(=O)N(CC(=O)c3c(Cl)cncc3Cl)CC(C)(C)C(F)(F)F)c2C(F)(F)F)CC[C@@H]1C(=O)O [Example 802]", "UNIT STRING": "nM", "IC50": 3.02}
{"COMPOUND": "C[C@@H]1C[C@H](n2ncc(C(=O)N(CC(=O)c3c(Cl)cncc3Cl)CC(C)(C)C)c2C(F)(F)F)CC[C@]1(C)C(=O)O [Example 862]", "UNIT STRING": "nM", "IC50": 38}
